# pIC50 per record follows
Molecular target: IDH2 R172K (Homo sapiens, UniProt P48735, R172K)
Sequence (P48735 40-452 R172K): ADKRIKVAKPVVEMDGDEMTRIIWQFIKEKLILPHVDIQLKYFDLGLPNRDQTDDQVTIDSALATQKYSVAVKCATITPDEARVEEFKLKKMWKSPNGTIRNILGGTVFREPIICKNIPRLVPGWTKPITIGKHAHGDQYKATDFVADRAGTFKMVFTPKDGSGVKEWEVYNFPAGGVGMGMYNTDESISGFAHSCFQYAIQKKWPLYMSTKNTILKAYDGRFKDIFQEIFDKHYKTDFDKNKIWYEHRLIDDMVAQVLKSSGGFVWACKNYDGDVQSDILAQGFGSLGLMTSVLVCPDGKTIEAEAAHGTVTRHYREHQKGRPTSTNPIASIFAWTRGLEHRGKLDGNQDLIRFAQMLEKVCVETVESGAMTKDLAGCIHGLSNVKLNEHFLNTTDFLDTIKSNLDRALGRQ
Assay: IDH2 R172K enzymatic assay (NADPH cofactor depletion, diaphorase/resazurin readout)
Conditions: read-out: Enz R172K
Experimental: Compounds are assayed for IDH2 R172K inhibitory activity through a cofactor depletion assay. […] The reaction is terminated by the addition of a second enzyme, diaphorase, and a corresponding substrate, resazurin. […]
pIC50: −log10 of the molar value.

Completed entries (count: 3):
[[record]]
compound = "CC(C)(O)CNc1nc(Nc2ccnc(C(C)(C)C#N)c2)nc(-c2cccc(C(F)(F)F)n2)n1"
measurement_label = "pIC50"
reported = "6.00 to 7.00"

[[record]]
compound = "CC(C)Nc1nc(Nc2ccnc(C(F)(F)F)c2)nc(-c2cccc(C(C)(F)F)n2)n1"
measurement_label = "pIC50"
reported = "> 7.00"

[[record]]
compound = "CCCCNc1nc(Nc2ccnc(Cl)c2)nc(-c2ccccc2)n1"
measurement_label = "pIC50"
reported = "> 7.00"


If you can, please state the reported pIC50 value of CC(C)Nc1nc(Nc2cc(F)cc(F)c2)nc(-c2cccc(Cl)n2)n1 . > 7.00

Repeat for the following compound: CC(C)Nc1nc(Nc2ccnc(F)c2)nc(-c2nccc(C(F)(F)F)n2)n1 [Compound 537] > 7.00

Repeat for the following compound: CC1(Nc2nc(Nc3ccnc(C(F)(F)F)c3)nc(-c3cccc(C(F)(F)F)n3)n2)COC1 > 7.00

Repeat for the following compound: CC(C)Nc1nc(Nc2cc(F)cc(F)c2)nc(-c2nc(N)ccc2F)n1 > 7.00

Repeat for the following compound: CC(C)Nc1nc(Nc2cc(F)cc(F)c2)nc(-c2cc(Cl)cc(N)n2)n1 6.00 to 7.00
